Hey, just so you know, these numbers are from ChEMBL document CHEMBL4418495.

- TEST SYSTEM: Nucleoside diphosphate phosphatase ENTPD5 (Homo sapiens)
- Sequence (O75356 whole entry): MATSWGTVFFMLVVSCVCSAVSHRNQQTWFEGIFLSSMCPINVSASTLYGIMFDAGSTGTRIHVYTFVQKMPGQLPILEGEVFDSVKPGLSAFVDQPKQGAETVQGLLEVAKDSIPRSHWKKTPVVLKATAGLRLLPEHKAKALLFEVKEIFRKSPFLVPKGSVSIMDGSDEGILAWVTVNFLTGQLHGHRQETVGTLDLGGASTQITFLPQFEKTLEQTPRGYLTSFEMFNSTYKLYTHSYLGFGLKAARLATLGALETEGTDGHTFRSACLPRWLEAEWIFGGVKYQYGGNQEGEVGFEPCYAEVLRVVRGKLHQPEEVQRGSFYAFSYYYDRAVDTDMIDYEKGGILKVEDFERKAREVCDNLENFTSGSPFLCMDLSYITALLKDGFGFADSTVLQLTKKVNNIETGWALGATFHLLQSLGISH
- ASSAY PROTOCOL: Inhibition of human recombinant ENTPD5 expressed in insect cells assessed as reduction in UDP hydrolysis incubated for 1 hr in presence of UMP, GTP and ATP by Escherichia coli UMP kinase pyrH catalyzed UMP phosphorylation coupled luciferase assay
PROPERTY MEASURED: IC50 (µM)
One number for each entry, in µM.

Record excerpt, results attached:
{"MOLECULE": "CC1(C)CCC[C@]2(C)[C@H]3Cc4cc(O)ccc4O[C@]3(C)CC[C@@H]12", "MEASURE UNIT": "µM", "IC50": 10}
{"MOLECULE": "C[C@H]1CC[C@]2(C)C(CCCC2(C)C)[C@]1(C)c1cc(O)ccc1O (some centres undefined)", "MEASURE UNIT": "µM", "IC50": 30}

Here's the next entry for you.
IC50 measured on C[C@H]1CC[C@@H]2C(CCCC2(C)C)[C@]1(C)c1cc(O)ccc1O (some centres undefined) = 30

---

- TEST SYSTEM: Ectonucleoside triphosphate diphosphohydrolase 5 (Mus musculus) (UniProt Q9WUZ9)
- Sequence (Q9WUZ9 whole entry): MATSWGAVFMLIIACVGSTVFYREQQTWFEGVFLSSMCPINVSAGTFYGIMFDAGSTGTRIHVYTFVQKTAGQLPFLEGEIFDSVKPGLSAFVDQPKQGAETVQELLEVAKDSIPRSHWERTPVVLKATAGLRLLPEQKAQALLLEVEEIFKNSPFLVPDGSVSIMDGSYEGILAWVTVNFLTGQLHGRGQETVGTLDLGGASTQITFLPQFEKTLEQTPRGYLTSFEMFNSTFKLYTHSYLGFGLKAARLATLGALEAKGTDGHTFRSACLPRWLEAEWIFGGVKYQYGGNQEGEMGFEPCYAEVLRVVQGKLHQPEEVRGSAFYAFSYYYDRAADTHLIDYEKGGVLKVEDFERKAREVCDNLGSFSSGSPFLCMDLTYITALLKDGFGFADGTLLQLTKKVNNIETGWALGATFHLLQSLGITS
- ASSAY PROTOCOL: Inhibition of ENTPD5 in PTEN knockout mouse MEF cells assessed as induction of ER stress by measuring increase in GRP78/BiP expression at 30 uM incubated for 24 hrs by Western blotting analysis
- Assay type: cell-based
The source made the active and inactive calls.
PROPERTY MEASURED: inhibition

Record excerpt, results attached:
{"COMPOUND": "O=C(CN1C(=O)/C(=C2\\SC(N3CCOCC3)=NC2=O)c2ccccc21)Nc1cccc(Br)c1", "MEASURED VALUE": "Active"}
{"COMPOUND": "O=C1NC(=S)NC(=O)C1=Cc1ccc(-c2ccc(Br)cc2)o1", "MEASURED VALUE": "Active"}
{"COMPOUND": "O=C(Nc1ccccc1)NC(N1CCOCC1)C(Cl)(Cl)Cl (stereo unspecified)", "MEASURED VALUE": "Active"}
{"COMPOUND": "O=C1NC(=O)C(=Cc2ccc(-c3ccc(I)cc3)o2)C(=O)N1", "MEASURED VALUE": "Active"}
{"COMPOUND": "Cc1cc(I)cc2c1NC(c1ccc([N+](=O)[O-])cc1)C1CC=CC21 (stereo unspecified)", "MEASURED VALUE": "Active"}
{"COMPOUND": "O=C1NC(=S)N(c2ccccc2)C(=O)/C1=C/c1ccc(-c2cc([N+](=O)[O-])ccc2Cl)o1", "MEASURED VALUE": "Active"}

Quick one: give me inhibition for each item below, same order please.
1. O=C1/C(=C/c2ccco2)C(=O)N(c2ccc(Br)cc2)C(=S)N1c1ccccc1
2. O=C1/C(=C/c2ccc(O)c([N+](=O)[O-])c2)SC(=S)N1c1cccc(C(F)(F)F)c1
3. O=C1/C(=C/c2ccc(O)c([N+](=O)[O-])c2)SC(=S)N1c1cccc(Cl)c1
4. Cc1ccc(-c2ccc(C=C3C(=O)NC(=S)NC3=O)o2)c(Br)c1
5. CCOC(=O)c1ccc(-c2ccc(/C=C3/C(=O)NC(=O)N(Cc4ccco4)C3=O)o2)cc1

## Result
1: Active; 2: Active; 3: Active; 4: Active; 5: Active

---

- TEST SYSTEM: Nucleoside diphosphate phosphatase ENTPD5 (Homo sapiens) (UniProt O75356)
- Sequence (whole entry): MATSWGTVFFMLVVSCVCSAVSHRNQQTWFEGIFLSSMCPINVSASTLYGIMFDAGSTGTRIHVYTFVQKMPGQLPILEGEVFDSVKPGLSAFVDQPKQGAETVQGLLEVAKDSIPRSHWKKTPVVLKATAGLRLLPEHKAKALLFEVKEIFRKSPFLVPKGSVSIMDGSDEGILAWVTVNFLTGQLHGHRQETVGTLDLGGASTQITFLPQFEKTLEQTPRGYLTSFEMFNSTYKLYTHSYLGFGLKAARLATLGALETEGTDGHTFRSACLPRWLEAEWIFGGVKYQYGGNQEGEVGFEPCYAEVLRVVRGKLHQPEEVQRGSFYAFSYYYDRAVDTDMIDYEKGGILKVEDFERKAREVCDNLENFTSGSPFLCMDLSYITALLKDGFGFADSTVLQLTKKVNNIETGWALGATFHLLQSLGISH
- ASSAY PROTOCOL: Inhibition of human recombinant ENTPD5 expressed in insect cells assessed as reduction in UDP hydrolysis at 1 uM incubated for 1 hr in presence of UMP, GTP and ATP by Escherichia coli UMP kinase pyrH catalyzed UMP phosphorylation coupled luciferase assay
Activity calls are given as the source filed them.
PROPERTY MEASURED: inhibition

Record excerpt, results attached:
{"RECORD SMILES": "NC(=O)c1cc2cc(Br)ccc2o/c1=N\\c1cc(C(F)(F)F)ccc1N1CCCCC1", "TEST SYSTEM": "Nucleoside diphosphate phosphatase ENTPD5 (Homo sapiens) (UniProt O75356)", "inhibition": "Active"}
{"RECORD SMILES": "CCc1ccc(NC2=NC(=O)/C(=C/c3cc(Cl)c(OCC(=O)O)c(Cl)c3)S2)cc1", "TEST SYSTEM": "Nucleoside diphosphate phosphatase ENTPD5 (Homo sapiens) (UniProt O75356)", "inhibition": "Active"}
{"RECORD SMILES": "Cc1cccc(Oc2ccc(N3C(=O)C=CC3=O)cc2)c1C", "TEST SYSTEM": "Nucleoside diphosphate phosphatase ENTPD5 (Homo sapiens) (UniProt O75356)", "inhibition": "Active"}
{"RECORD SMILES": "CCOc1cc(/C=C2\\SC(=S)NC2=O)cc(Br)c1OCc1cccc2ccccc12", "TEST SYSTEM": "Nucleoside diphosphate phosphatase ENTPD5 (Homo sapiens) (UniProt O75356)", "inhibition": "Active"}

Here's the next entry for you.
inhibition measured on `COc1cc(/C=C2/SC(=S)N(C3CCCCC3)C2=O)cc(Cl)c1O` = Active
